- Test system: T-47D breast
- experiment: NCI tumour cell line growth inhibition, 48 h
readout-name: TGI (µM)
Report only the number, with the unit µM understood.

molecule	TGI, µM
Cc1ccc2nc(SCC(=O)N=Nc3c(O)[nH]c4ccccc34)n(-c3ccccc3)c(=O)c2c1	34

[Q] Which TGI is listed for CN1CCC(CNc2cc(C3(C(=O)Nc4cc(C(=O)Nc5ccc(Cl)c(C(F)(F)F)c5)ccc4F)CC3)ncn2)CC1 ?
[A] 26.8

[Q] Which TGI is listed for CC1CC[C@@]2(OC1)OC1C[C@H]3[C@@H]4CC=C5CC(OC6OC(CO)C(OC7OC(CO)C(O)C(OC8OCC(O)C(O)C8O)C7OC7OC(CO)C(OC8OC(C)C(OC9OC(C)C(O)C(O)C9O)C(O)C8O)C(O)C7O)C(O)C6O)CCC5(C)[C@H]4CCC3(C)C1[C@@H]2C (stereo partly drawn) ?
[A] 20.2

[Q] Which TGI is listed for O=S1(=O)c2ccccc2Oc2ccc(C(/C=N/O)=N/O)cc21 ?
[A] 35.6

---

- Test system: OVCAR-8 ovarian
- experiment: NCI tumour cell line growth inhibition, 48 h
readout-name: TGI

Please review the entries below; each comes with its answer.
molecule	observed-result
COc1ccc(C2=Nn3c(nnc3-c3cc(Cl)cc(Cl)c3Cl)SC2)cc1	> 40.7 µM
CCc1c(C#N)c(=O)[nH]c(=O)n1CCN1CCN(C(=O)NCCCCCCNC(=O)N2CCN(CCn3c(CC)c(C#N)c(=O)[nH]c3=O)CC2)CC1	> 100 µM
Cc1cc(C)nc(NS(=O)(=O)c2ccc(NC(=O)c3c4ccccc4nc4ccccc34)cc2)n1	> 100 µM
O=C(Nc1ccccc1)N(C1=NCC(CI)S1)c1ccc(F)c(F)c1 (stereo not given)	> 100 µM

[Q] Which TGI is listed for C=C(c1ccccc1)C1(O)CCCCC1N (stereo not given) ?
[A] > 100 µM

---

- Test system: UACC-62 melanoma
- experiment: NCI tumour cell line growth inhibition, 48 h
readout-name: log10 of TGI (log10 of the value in µM)
All values: log10 TGI [µM].

Please review the entries below; each comes with its answer.
compound	readout-name	observed-result
Cc1c2cnccc2c(C)c2c1c1cc(C#N)ccc1n2C	log10 of TGI	-0.46
[N-]=[N+]=Nc1c(Cc2ccccc2)c(Cl)nc2ccccc12	log10 of TGI	1.84

[Q] Which log10 of TGI is listed for C=CCc1c(Cl)nc(Cl)nc1Cl ?
[A] 0.32

---

- System: OVCAR-3 ovarian
- experiment: NCI tumour cell line growth inhibition, 48 h
readout-name: TGI

molecule	TGI
COc1cc(C)ccc1C(=O)c1ccc(C)cc1OC	6.55 µM
CNC(C)(C)Cc1ccc(Cl)cc1	> 100 µM
O=C1Nc2ccccc2C1(O)C/C(=N/O)c1ccc2ccccc2c1 (stereo not given)	> 100 µM
NC(=O)CNC(=O)[C@@H]1CC(OCCC(=O)O)CN1C(=O)C1CCCN1C(=O)OCc1ccccc1 (stereo not given in full)	> 100 µM
O=c1cc(-c2cccs2)[nH]c2cc3c(cc12)OCO3	> 28.5 µM

[Q] Which TGI is listed for COc1ccc2c(c1)C(=O)/C(=C/c1cccc(OCC(=O)c3ccccc3)c1)CC2 ?
[A] > 100 µM

[Q] Which TGI is listed for CCc1n[nH]c(=O)n1CCCCCCCCCCCCn1c(CC)n[nH]c1=O ?
[A] > 100 µM

[Q] Which TGI is listed for C[C@@H]1OC(=O)C[C@H]2CC(=O)N(CCC3CN(C(=O)OCc4ccccc4)c4ccccc43)C[C@@H]21 (stereo not given in full) ?
[A] > 100 µM

[Q] Which TGI is listed for CN(C)CC(O)c1ccc(Cl)c2ccccc12 (stereo not given) ?
[A] > 100 µM

[Q] Which TGI is listed for CC(=O)c1c(O)c(C)c(O)c(Cc2c(O)c3c(c(C(=O)/C=C/c4ccccc4)c2O)OC(C)(C)C=C3)c1O ?
[A] 15.8 µM

[Q] Which TGI is listed for O=C1C=CC(=O)c2c1ccc1c3ccccc3n(Cc3ccc([N+](=O)[O-])cc3)c21 ?
[A] > 100 µM

[Q] Which TGI is listed for O=c1[nH]c2nc3ccccc3c(=O)n2/c1=C/c1ccc(Cl)cc1 ?
[A] > 100 µM

[Q] Which TGI is listed for CCOC(=O)C(C#N)(Cc1c[nH]c2ccccc12)NC(C)=O (stereo not given) ?
[A] > 100 µM

[Q] Which TGI is listed for CC1=C2C(=C[C@@](C)(CO)[C@@H]2OC(=O)N(C)CCN(C)C(=O)OC(C)(C)C)C(=O)[C@](C)(O)C12CC2 ?
[A] 21 µM

[Q] Which TGI is listed for O=C(c1ccc2ccccc2c1)c1c(C(F)(F)F)n([O-])c2ccc(C(F)(F)F)cc2[n+]1=O ?
[A] 2.26 µM

[Q] Which TGI is listed for C=CCOC(=O)N1c2ccc(O[Si](C)(C)C(C)(C)C)cc2[C@@]23O[C@@]24[C@@H]1C#C/C=C\C#C[C@]3(O)C(OC)(OC)C[C@@H]4C ?
[A] > 100 µM

[Q] Which TGI is listed for CCCN1C(=O)NC(=O)C(CC)(N2C(=O)c3c(F)c(F)c(F)c(F)c3C2=O)C1=O (stereo not given) ?
[A] 3.16 µM

[Q] Which TGI is listed for Cn1c(=O)c2c(nc3n(CC(O)CCl)c(=O)ccn23)n(C)c1=O (stereo not given) ?
[A] > 100 µM

[Q] Which TGI is listed for CN(C)CCNC(=O)Cn1ccc(=O)c2cc([N+](=O)[O-])ccc21 ?
[A] > 100 µM

[Q] Which TGI is listed for CCOc1ccccc1CCN=C1NC(=O)/C(=C/c2ccc3ncccc3c2)S1 ?
[A] 2.29 µM

---

Recorded GI50 by entry
- Tested on: HCT-15 colon
- experiment: NCI tumour cell line growth inhibition, 48 h

Please review the entries below; each comes with its answer.
COc1cc(C)ccc1C(=O)c1ccc(C)cc1OC 1.1 µM
CN1CCC(CNc2cc(C3(C(=O)Nc4cc(C(=O)Nc5ccc(Cl)c(C(F)(F)F)c5)ccc4F)CC3)ncn2)CC1 1.6 µM

Please look at the following compound next.
[Q] Which GI50 is listed for O=C(Nc1cccc(Cl)c1)Nn1cnnc1 ?
[A] > 50 µM

---

- System: NCI-H23 lung
- experiment: NCI tumour cell line growth inhibition, 48 h
readout-name: TGI

molecule	system	TGI
O=C1CC(CC(=O)C2CCCCC2=O)C(=O)N1 (stereo unspecified)	NCI-H23 lung	> 100 µM
Cc1cc2c(C)nn(Cc3ccccc3)c2c(C(=O)O)c1C	NCI-H23 lung	> 100 µM
CCC1(O)C(=O)OCc2c1cc1n(c2=O)Cc2cc3ccccc3nc2-1 (stereo unspecified)	NCI-H23 lung	0.0806 µM
Oc1cc(Cc2ccccc2)c(Cc2ccccc2)cc1O	NCI-H23 lung	> 10 µM
C#CCNC(CSSCC(N)C(=O)O)C(=O)O (stereo unspecified)	NCI-H23 lung	> 100 µM

[Q] Which TGI is listed for Cc1ccc2cnc(N)c(C#Cc3cc(C(=O)Nc4ccc(CN5CCN(C)CC5)c(C(F)(F)F)c4)cnc3C)c2c1 ?
[A] 1.82 µM

[Q] Which TGI is listed for CCC/C(Cl)=N\OC(=O)Nc1ccc(F)cc1 ?
[A] 41.2 µM

[Q] Which TGI is listed for CCO/C(=N/S(=O)(=O)C(F)(F)F)N(C(C)C)C(C)C ?
[A] > 100 µM

[Q] Which TGI is listed for O=C(N/N=C/c1ccccc1O)N/N=C/c1ccccc1O ?
[A] > 100 µM

[Q] Which TGI is listed for C1=C(c2ccccc2)SC(N2CCCCC2)S1 (stereo unspecified) ?
[A] > 100 µM

---

- Tested on: A549 NSCLC
- experiment: NCI tumour cell line growth inhibition, 48 h
readout-name: TGI

[Q] Which TGI is listed for O=c1[nH]cc(NCCCl)c(=O)[nH]1 ?
[A] > 100 µM

[Q] Which TGI is listed for CC(=O)NC1C(OCc2ccccc2)OC(CO)C(O)C1OCC(=O)N1CCCC1C(=O)N[C@@H](CCC(=O)NCCCCNc1c2ccccc2nc2cccc([N+](=O)[O-])c12)C(N)=O (some centres not stated) ?
[A] 37.8 µM

[Q] Which TGI is listed for O=C1C2C3C=C4c5ccccc5N(c5ccccc5)C4(C2C(=O)N1c1ccccc1)C1C(=O)N(c2ccccc2)C(=O)C31 (configuration not stated) ?
[A] > 100 µM

[Q] Which TGI is listed for CCOC(=O)Oc1c(OC)cc(C(=O)c2ccc(OC)c(O)c2OC)cc1OC ?
[A] > 100 µM

[Q] Which TGI is listed for CN(C)CCNC(=O)Cn1ccc(=O)c2cc([N+](=O)[O-])ccc21 ?
[A] > 100 µM

[Q] Which TGI is listed for COC1CC(N)(c2ccccc2)C(O)C(C)O1 (configuration not stated) ?
[A] > 100 µM
